test system: Zymoseptoria tritici (SEPTTR-184); test: Cyp51 dsRNA tile (fragment) foliar application bioassay (Example 6); type: in vivo; conditions: 1 day protectant; calculated from disease control
readoutLabel: ED80 (ppm) SEPTTR-184 1DP

molecule MgCyp51-T5: dsRNA tile of Zymoseptoria tritici Cyp51, 133 bp, location 1316-1448 (nucleic acid, listed as Zymoseptoria tritici) AATACAAGCACCTGTCCCCGACGACTGCCCTAGGAAGCATCGCCGAGGAGAAAGAAGACTATGGCTACGGCCTGGTAAGCAAGGGCGCGGCGTCGCCATACTTACCCTTTGGTGCGGGACGACACAGATGTAT , ED80 (ppm) SEPTTR-184 1DP observed: >200 ppm
